Target: 5-hydroxytryptamine receptor 4 (Homo sapiens)
Assay: Agonist activity at human 5HT4C receptor expressed in HEK293 cells assessed as accumulation of cAMP by flash plate adenylyl cyclase activation assay
Form field: EC50 (one value per entry).
Dear colleague, please return just the value in nM, with no unit written.

In the examples that follow, each entry is paired with its recorded EC50.
CC(C)n1c(=O)c(C(=O)N[C@H]2C[C@H]3CC[C@@H](C2)N3C[C@@H](O)CN2CCN(S(C)(=O)=O)CC2)cc2ccccc21 = 0.398
CC(C)n1c(=O)c(C(=O)N[C@H]2C[C@H]3CC[C@@H](C2)N3CCCN2CCN(c3ccccc3)CC2)cc2ccccc21 = 0.794

(Q) Notebook entry, 5-hydroxytryptamine receptor 4 (Homo sapiens) assay: EC50 of `CC(C)n1c(=O)c(C(=O)NCC2CCNCC2)cc2ccccc21` = ?
(A) 100

(Q) Notebook entry, 5-hydroxytryptamine receptor 4 (Homo sapiens) assay: EC50 of `CC(C)n1c(=O)c(C(=O)N[C@H]2C[C@H]3CC[C@@H](C2)N3CCCCCCCN2CCN(S(C)(=O)=O)CC2)cc2ccccc21` = ?
(A) 2.51

* * *

Biological target: 5-hydroxytryptamine receptor 4 (Homo sapiens, UniProt Q13639)
Sequence (Q13639 whole entry): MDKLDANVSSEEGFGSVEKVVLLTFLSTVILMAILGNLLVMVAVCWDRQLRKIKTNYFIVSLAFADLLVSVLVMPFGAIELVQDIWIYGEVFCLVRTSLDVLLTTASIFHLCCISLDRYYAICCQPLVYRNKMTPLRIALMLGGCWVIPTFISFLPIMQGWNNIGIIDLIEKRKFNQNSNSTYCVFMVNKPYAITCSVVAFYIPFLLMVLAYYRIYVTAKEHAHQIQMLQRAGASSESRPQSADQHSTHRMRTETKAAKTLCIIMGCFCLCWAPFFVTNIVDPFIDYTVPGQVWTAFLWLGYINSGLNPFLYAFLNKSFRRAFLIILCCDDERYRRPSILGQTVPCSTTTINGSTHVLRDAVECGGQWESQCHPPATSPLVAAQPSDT
Could you please mark condition met for values of Ki below 50 nM and condition not met for values at or above it?

The examples below pair each entry with its known result.
CC(C)n1nc(C(=O)N[C@H]2C[C@H]3CC[C@@H](C2)N3)c2ccccc21 = condition not met
CCOC(=O)N1CCN(CCCCCCCN2[C@@H]3CC[C@H]2C[C@@H](NC(=O)c2cc4ccccc4n(C(C)C)c2=O)C3)CC1 = condition met
CC(C)n1c(=O)c(C(=O)N[C@H]2C[C@H]3CC[C@@H](C2)N3CCCCCO)cc2ccccc21 = condition not met
CCCCCN1CCC(NC(=O)c2cc(Cl)c(N)cc2OC)CC1 = condition not met
CC(C)n1c(=O)c(C(=O)N[C@H]2C[C@H]3CC[C@@H](C2)N3CCO)cc2ccccc21 = condition not met
CC(C)n1c(=O)c(C(=O)N[C@H]2C[C@H]3CC[C@@H](C2)N3CCCCCCCCN2CCN(S(C)(=O)=O)CC2)cc2ccccc21 = condition met

(Q) Here's an entry: `CC(C)n1c(=O)c(C(=O)N[C@H]2C[C@H]3CC[C@@H](C2)N3C[C@@H](O)CN2CCN(S(C)(=O)=O)CC2)cc2ccccc21` . Is its Ki below 50 nM?
(A) condition met

* * *

Biological target: 5-hydroxytryptamine receptor 4 (Homo sapiens)
Assay: Intrinsic activity at human 5HT4C receptor expressed in HEK293 cells assessed as accumulation of cAMP by flash plate adenylyl cyclase activation assay relative to serotonin
Format: functional, cell-based
MEASURED ENDPOINT: Intrinsic activity

In the examples that follow, each entry is paired with its recorded Intrinsic activity.
CC(C)n1c(=O)c(C(=O)NC2CCNCC2)cc2ccccc21 = > 100%
COc1cc(N)c(Cl)cc1C(=O)NC1CCN(CCCCCN(C)CCc2c[nH]c3ccccc23)CC1 = > 100%
CC(C)n1c(=O)c(C(=O)N[C@H]2C[C@H]3CC[C@@H](C2)N3CCCCCS(=O)(=O)O)cc2ccccc21 = > 100%
COc1cc(N)c(Cl)cc1C(=O)NC1CCN(CCCCCCCCN2CCCCC2)CC1 = > 100%
CC(C)n1c(=O)n(C(=O)NC2CCNCC2)c2ccccc21 = > 100%
CC(C)n1c(=O)c(C(=O)N[C@H]2C[C@H]3CC[C@@H](C2)N3CCCN2CCOCC2)cc2ccccc21 = > 100%
CCOC(=O)N1CCN(CCCCCCCN2[C@@H]3CC[C@H]2C[C@@H](NC(=O)c2cc4ccccc4n(C(C)C)c2=O)C3)CC1 = > 100%
COc1cc(N)c(Cl)cc1C(=O)NC1CCN(CCO)CC1 = > 100%

(Q) What value of Intrinsic activity has been reported for the following molecule? `COc1cc(N)c(Cl)cc1C(=O)NC1CCN(CCS(=O)(=O)O)CC1`
(A) > 100%

(Q) What value of Intrinsic activity has been reported for the following molecule? `COc1cc(N)c(Cl)cc1C(=O)NC1CCN(CCCCCCCCS(=O)(=O)O)CC1`
(A) > 100%

(Q) What value of Intrinsic activity has been reported for the following molecule? `COc1ccc2[nH]cc(C(=O)NCC3CCNCC3)c2c1`
(A) 42%

(Q) What value of Intrinsic activity has been reported for the following molecule? `CCN1CCC(NC(=O)c2cc(Cl)c(N)cc2OC)CC1`
(A) > 100%

(Q) What value of Intrinsic activity has been reported for the following molecule? `COc1cc(N)c(Cl)cc1C(=O)NCC1CCNCC1`
(A) 81%

* * *

Molecular target: 5-hydroxytryptamine receptor 4 (Homo sapiens, UniProt Q13639)
Test: Intrinsic activity at human 5HT4C receptor expressed in HEK293 cells assessed as accumulation of cAMP by flash plate adenylyl cyclase activation assay relative to serotonin
Format: functional, cell-based
MEASURED ENDPOINT: Intrinsic activity

In the examples that follow, each entry is paired with its recorded Intrinsic activity.
COc1cc(N)c(Cl)cc1C(=O)NC1CCN(CCN2C(=O)c3ccccc3C2=O)CC1 = 94%
COc1cc(N)c(Cl)cc1C(=O)NC1CCN(CCCCCN2CCCCC2)CC1 = > 100%
CC(C)n1c(=O)c(C(=O)N[C@H]2C[C@H]3CC[C@@H](C2)N3CCCCCCCCO)cc2ccccc21 = > 100%
COc1ccc2[nH]cc(C(=O)N[C@H]3C[C@H]4CC[C@@H](C3)N4)c2c1 = 77%
CC(C)n1c(=O)c(C(=O)N[C@H]2C[C@H]3CC[C@@H](C2)N3CCCN2CCCCC2)cc2ccccc21 = > 100%
CCCCCN1CCC(NC(=O)c2cc(Cl)c(N)cc2OC)CC1 = > 100%
CCCCCN1[C@@H]2CC[C@H]1C[C@@H](NC(=O)c1cc3ccccc3n(C(C)C)c1=O)C2 = > 100%
CC(C)n1c(=O)c(C(=O)N[C@H]2C[C@H]3CC[C@@H](C2)N3CCO)cc2ccccc21 = > 100%

(Q) What value of Intrinsic activity has been reported for the following compound? `CC(C)n1nc(C(=O)NCC2CCNCC2)c2ccccc21`
(A) 0%

* * *

Organism: Homo sapiens
Test: Selectivity ratio of Ki for human 5HT3A receptor to Ki for human 5HT4C receptor
Binary classification by Ratio Ki, with 1000 as an inclusive lower bound for YES; all other cases are NO.

(Q) Kindly determine if Ratio Ki recorded for `COc1cc(N)c(Cl)cc1C(=O)NC1CCN(CCCCCS(=O)(=O)O)CC1` is above or exactly 1000.
(A) NO

(Q) Kindly determine if Ratio Ki recorded for `CC(C)n1c(=O)c(C(=O)N[C@H]2C[C@H]3CC[C@@H](C2)N3CCCN2CCOCC2)cc2ccccc21` is above or exactly 1000.
(A) NO

(Q) Kindly determine if Ratio Ki recorded for `CC(C)n1c(=O)c(C(=O)N[C@H]2C[C@H]3CC[C@@H](C2)N3CCCCCN2C(=O)c3ccccc3C2=O)cc2ccccc21` is above or exactly 1000.
(A) YES

(Q) Kindly determine if Ratio Ki recorded for `CC(C)n1c(=O)c(C(=O)N[C@H]2C[C@H]3CC[C@@H](C2)N3CCCN2CCC(CNS(C)(=O)=O)CC2)cc2ccccc21` is above or exactly 1000.
(A) YES

(Q) Kindly determine if Ratio Ki recorded for `CC(C)n1c(=O)c(C(=O)N[C@H]2C[C@H]3CC[C@@H](C2)N3)cc2ccccc21` is above or exactly 1000.
(A) NO

(Q) Kindly determine if Ratio Ki recorded for `CCN1CCC(NC(=O)c2cc(Cl)c(N)cc2OC)CC1` is above or exactly 1000.
(A) NO

(Q) Kindly determine if Ratio Ki recorded for `CC(C)n1c(=O)c(C(=O)N[C@H]2C[C@H]3CC[C@@H](C2)N3CCCCCN2CCCCC2)cc2ccccc21` is above or exactly 1000.
(A) YES

(Q) Kindly determine if Ratio Ki recorded for `COc1cc(N)c(Cl)cc1C(=O)NC1CCN(CCCCCCCCO)CC1` is above or exactly 1000.
(A) NO

* * *

Form field: Ratio Ki (one value per entry).
Organism: Homo sapiens
Experiment: Selectivity ratio of Ki for human 5HT3A receptor to Ki for human 5HT4C receptor

CC(C)n1c(=O)c(C(=O)N[C@H]2C[C@H]3CC[C@@H](C2)N3CCCN2CCCCC2)cc2ccccc21 = 9200
COc1cc(N)c(Cl)cc1C(=O)NC1CCN(CCN2C(=O)c3ccccc3C2=O)CC1 = 13
CC(C)n1c(=O)c(C(=O)N[C@H]2C[C@H]3CC[C@@H](C2)N3CCN(C)CCc2c[nH]c3ccccc23)cc2ccccc21 = 480
CC(C)n1c(=O)c(C(=O)N[C@H]2C[C@H]3CC[C@@H](C2)N3CC(O)CN2CCN(S(C)(=O)=O)CC2)cc2ccccc21 (mixture of isomers) = 2400
CC(C)n1c(=O)c(C(=O)N[C@H]2C[C@H]3CC[C@@H](C2)N3CCCCCS(=O)(=O)O)cc2ccccc21 = 21

Note: attention shifts to another entry.
(Q) What value of Ratio Ki has been reported for the following compound? `CC(C)n1c(=O)c(C(=O)N[C@H]2C[C@H]3CC[C@@H](C2)N3C[C@@H](O)CN2CCN(S(C)(=O)=O)CC2)cc2ccccc21`
(A) 7400
